Assay: Phase 1 open-label, fixed-sequence, single-ascending dose and food-effect PK study of MT1621 in adult healthy subjects
Format: in vivo, human
Settings: both sexes, human, plasma, oral, 86.7 mg/kg, 86.7 mg/kg dose level; read-out: geometric mean elimination half-life (converted)
metric: half-life (h)
# number only, unit h dropped from output

INPUT: # query: half-life of entry Nc1ccn([C@H]2C[C@H](O)[C@@H](CO)O2)c(=O)n1 [dC, β-D-2′-deoxycytidine]
OUTPUT: 1.44

====

Assay: Phase 1 open-label, fixed-sequence, single-ascending dose and food-effect PK study of MT1621 in adult healthy subjects
Format: in vivo, human
Details: both sexes, human, plasma, oral, 133.3 mg/kg, Treatment C: single 133.3 mg/kg MT1621, fasted; baseline-adjusted plasma; geometric mean (geometric CV %); read-out: AUC0-4
So I've got a bunch of compounds here, and I need their AUC(0-t) values.
// return numeric value only (unit: µg·h/mL, not printed)

INPUT: Tell me the measured AUC(0-t) of Cc1cn([C@H]2C[C@H](O)[C@@H](CO)O2)c(=O)[nH]c1=O , please.
OUTPUT: 0.0531

INPUT: # get_value(readout='AUC(0-t)', item= Nc1ccn([C@H]2C[C@H](O)[C@@H](CO)O2)c(=O)n1 )
OUTPUT: 0.0171
